All figures here come from ChEMBL document CHEMBL4602617.

# SYSTEM_NAME: Ephrin type-B receptor 1 (Homo sapiens, UniProt P54762)
# Sequence (P54762 whole entry): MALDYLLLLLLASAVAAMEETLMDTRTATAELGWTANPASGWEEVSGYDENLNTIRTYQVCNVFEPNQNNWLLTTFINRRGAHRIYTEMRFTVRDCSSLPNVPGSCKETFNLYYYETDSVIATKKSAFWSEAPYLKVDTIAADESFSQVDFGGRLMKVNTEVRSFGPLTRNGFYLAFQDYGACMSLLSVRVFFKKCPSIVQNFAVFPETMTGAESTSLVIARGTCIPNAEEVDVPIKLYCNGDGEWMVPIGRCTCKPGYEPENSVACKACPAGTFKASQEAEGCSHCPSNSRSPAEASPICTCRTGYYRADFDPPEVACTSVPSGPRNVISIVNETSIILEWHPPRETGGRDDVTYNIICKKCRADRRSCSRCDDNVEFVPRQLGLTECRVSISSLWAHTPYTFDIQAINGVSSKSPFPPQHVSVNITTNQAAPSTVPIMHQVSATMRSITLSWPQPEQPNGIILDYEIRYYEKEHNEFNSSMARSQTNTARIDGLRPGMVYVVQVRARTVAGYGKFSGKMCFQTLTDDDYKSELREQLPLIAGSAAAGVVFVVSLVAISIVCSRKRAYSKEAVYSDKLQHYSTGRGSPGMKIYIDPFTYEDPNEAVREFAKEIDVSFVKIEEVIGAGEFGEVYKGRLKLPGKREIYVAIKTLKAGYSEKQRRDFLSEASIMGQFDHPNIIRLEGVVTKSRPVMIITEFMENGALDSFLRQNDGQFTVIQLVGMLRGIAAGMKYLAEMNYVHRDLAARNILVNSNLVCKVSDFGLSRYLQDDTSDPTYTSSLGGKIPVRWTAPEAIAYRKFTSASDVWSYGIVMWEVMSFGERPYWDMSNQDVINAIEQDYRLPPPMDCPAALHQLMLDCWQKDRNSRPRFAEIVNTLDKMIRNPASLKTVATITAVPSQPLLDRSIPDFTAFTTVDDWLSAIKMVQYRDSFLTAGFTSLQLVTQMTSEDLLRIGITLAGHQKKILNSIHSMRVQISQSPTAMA
# ASSAY_COMMENT: Inhibition of recombinant human GST-tagged EPHB1 catalytic domain expressed in baculovirus expression system using tyrosine-2 peptide as substrate incubated for 60 mins in presence of ATP by Z'-LYTE assay
PROPERTY_LABEL: IC50 (µM)
Give the quantity in µM, number only.

Ask: Answer with IC50 of C[C@@H]1C[C@H]1C(=O)N1CCN(c2cnc(C#N)c(-c3cnn(C)c3)n2)C[C@H]1C measured for Ephrin type-B receptor 1 (Homo sapiens, UniProt P54762).
Reply: 37.7

====

# SYSTEM_NAME: Dual specificity mitogen-activated protein kinase kinase 1 (Homo sapiens, UniProt Q02750)
# ASSAY_COMMENT: Inhibition of recombinant full length human His-tagged MEK1 expressed in baculovirus expression system using serine/threonine-3 peptide as substrate incubated for 60 mins in presence of ATP by Z'-LYTE assay
pIC50: −log10 of the molar value.
PROPERTY_LABEL: pIC50

Ask: Supply pIC50 value. Item: C[C@@H]1C[C@H]1C(=O)N1CCN(c2cnc(C#N)c(-c3cnn(C)c3)n2)C[C@H]1C
Reply: < 4.00

====

# SYSTEM_NAME: Phosphatidylinositol 4-kinase alpha (Homo sapiens, UniProt P42356)
# ASSAY_COMMENT: Inhibition of recombinant full length human N-terminal GST-tagged PI4KA expressed in baculovirus expression system using PI lipid as substrate incubated for 60 mins in presence of ATP by Adapta assay
pIC50: −log10 of the molar value.
PROPERTY_LABEL: pIC50

Ask: Supply pIC50 value. Item: C[C@@H]1C[C@H]1C(=O)N1CCN(c2cnc(C#N)c(-c3cnn(C)c3)n2)C[C@H]1C
Reply: < 4.00

====

# SYSTEM_NAME: Inhibitor of nuclear factor kappa-B kinase subunit alpha (Homo sapiens, UniProt O15111)
# Sequence (O15111 whole entry): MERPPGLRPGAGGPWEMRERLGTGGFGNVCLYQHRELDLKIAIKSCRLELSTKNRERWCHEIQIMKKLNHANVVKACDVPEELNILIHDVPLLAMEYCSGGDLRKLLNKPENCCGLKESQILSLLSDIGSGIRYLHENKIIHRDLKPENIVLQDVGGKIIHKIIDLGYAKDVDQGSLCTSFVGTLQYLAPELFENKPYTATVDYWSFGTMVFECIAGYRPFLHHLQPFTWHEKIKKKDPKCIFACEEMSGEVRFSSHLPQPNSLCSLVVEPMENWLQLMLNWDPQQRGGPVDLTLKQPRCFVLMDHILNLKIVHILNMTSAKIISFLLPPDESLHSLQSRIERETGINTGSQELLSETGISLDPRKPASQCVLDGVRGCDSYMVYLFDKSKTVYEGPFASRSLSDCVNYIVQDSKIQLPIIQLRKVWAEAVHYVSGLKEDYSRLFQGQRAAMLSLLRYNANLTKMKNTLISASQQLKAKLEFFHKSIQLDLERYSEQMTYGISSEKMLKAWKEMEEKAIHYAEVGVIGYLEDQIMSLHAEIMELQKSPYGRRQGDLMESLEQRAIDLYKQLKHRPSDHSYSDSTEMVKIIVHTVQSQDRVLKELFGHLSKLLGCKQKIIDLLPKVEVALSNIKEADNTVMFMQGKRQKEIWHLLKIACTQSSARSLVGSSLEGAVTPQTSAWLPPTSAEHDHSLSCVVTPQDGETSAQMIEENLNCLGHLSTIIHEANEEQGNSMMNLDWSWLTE
# ASSAY_COMMENT: Inhibition of recombinant full length His-tagged human IKKalpha expressed in baculovirus expression system after 1 hr in presence of ATP by Adapta assay
pIC50: −log10 of the molar value.
PROPERTY_LABEL: pIC50

Ask: Supply pIC50 value. Item: C[C@@H]1C[C@H]1C(=O)N1CCN(c2cnc(C#N)c(-c3cnn(C)c3)n2)C[C@H]1C
Reply: < 4.00

====

# SYSTEM_NAME: Muscle, skeletal receptor tyrosine-protein kinase (Homo sapiens)
# Sequence (O15146 whole entry, the tested form may be a part): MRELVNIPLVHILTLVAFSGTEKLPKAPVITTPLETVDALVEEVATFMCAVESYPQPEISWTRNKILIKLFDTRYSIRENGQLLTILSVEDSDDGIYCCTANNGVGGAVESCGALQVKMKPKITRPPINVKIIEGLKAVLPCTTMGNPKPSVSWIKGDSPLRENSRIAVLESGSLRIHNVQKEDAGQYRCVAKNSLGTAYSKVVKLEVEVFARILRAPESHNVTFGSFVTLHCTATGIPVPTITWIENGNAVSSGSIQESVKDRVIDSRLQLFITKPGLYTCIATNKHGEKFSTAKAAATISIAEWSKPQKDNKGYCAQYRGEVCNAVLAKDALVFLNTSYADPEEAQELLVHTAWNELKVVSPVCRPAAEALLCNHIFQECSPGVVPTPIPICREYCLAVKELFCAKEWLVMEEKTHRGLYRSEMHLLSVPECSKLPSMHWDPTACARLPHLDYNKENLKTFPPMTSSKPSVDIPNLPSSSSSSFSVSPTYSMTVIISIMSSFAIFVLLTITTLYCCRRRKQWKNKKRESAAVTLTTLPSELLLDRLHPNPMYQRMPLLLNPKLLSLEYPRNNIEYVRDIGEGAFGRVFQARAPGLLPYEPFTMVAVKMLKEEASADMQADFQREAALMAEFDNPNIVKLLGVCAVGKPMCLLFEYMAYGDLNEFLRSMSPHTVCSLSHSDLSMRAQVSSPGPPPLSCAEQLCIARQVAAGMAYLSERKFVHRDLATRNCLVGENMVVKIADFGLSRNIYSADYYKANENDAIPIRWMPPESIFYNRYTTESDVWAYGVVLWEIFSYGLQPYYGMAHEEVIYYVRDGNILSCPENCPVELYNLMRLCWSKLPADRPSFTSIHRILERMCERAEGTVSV
# ASSAY_COMMENT: Inhibition of recombinant human GST-tagged MUSK cytoplasmic domain (519 to 869 residues) expressed in baculovirus expression system using tyrosine-4 peptide as substrate incubated for 60 mins in presence of ATP by Z'-LYTE assay
pIC50: −log10 of the molar value.
PROPERTY_LABEL: pIC50

Ask: Supply pIC50 value. Item: C[C@@H]1C[C@H]1C(=O)N1CCN(c2cnc(C#N)c(-c3cnn(C)c3)n2)C[C@H]1C
Reply: < 4.00

====

# SYSTEM_NAME: Ephrin type-A receptor 4 (Homo sapiens, UniProt P54764)
# ASSAY_COMMENT: Inhibition of recombinant human GST-tagged EPHA4 cytoplasmic domain expressed in baculovirus expression system using tyrosine-02 peptide as substrate incubated for 60 mins in presence of ATP by Z'-Lyte assay
PROPERTY_LABEL: IC50

Ask: Supply IC50 value. Item: C[C@@H]1C[C@H]1C(=O)N1CCN(c2cnc(C#N)c(-c3cnn(C)c3)n2)C[C@H]1C
Reply: > 100 µM

====

# SYSTEM_NAME: Serine/threonine-protein kinase MARK1 (Homo sapiens, UniProt Q9P0L2)
# ASSAY_COMMENT: Inhibition of recombinant full length human GST-tagged MARK1 expressed in baculovirus expression system using serine/threonine-21 peptide as substrate incubated for 60 mins in presence of ATP by Z'-LYTE assay
PROPERTY_LABEL: IC50

Ask: Supply IC50 value. Item: C[C@@H]1C[C@H]1C(=O)N1CCN(c2cnc(C#N)c(-c3cnn(C)c3)n2)C[C@H]1C
Reply: > 100 µM

====

# SYSTEM_NAME: Aurora kinase C (Homo sapiens)
# Sequence (Q9UQB9 whole entry): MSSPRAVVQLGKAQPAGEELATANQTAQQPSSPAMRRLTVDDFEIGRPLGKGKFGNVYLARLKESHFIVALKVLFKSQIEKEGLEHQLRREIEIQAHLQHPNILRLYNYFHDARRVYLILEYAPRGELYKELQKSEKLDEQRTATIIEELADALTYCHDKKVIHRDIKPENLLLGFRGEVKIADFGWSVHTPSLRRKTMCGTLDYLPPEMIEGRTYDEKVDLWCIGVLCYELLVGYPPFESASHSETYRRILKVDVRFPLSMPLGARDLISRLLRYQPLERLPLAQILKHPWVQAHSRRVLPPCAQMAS
# ASSAY_COMMENT: Inhibition of recombinant full length GST-tagged human AURKC expressed in baculovirus expression system using Ser/Thr-19 peptide as substrate incubated for 60 mins in presence of ATP by Z'-LYTE assay
PROPERTY_LABEL: IC50

Ask: Supply IC50 value. Item: C[C@@H]1C[C@H]1C(=O)N1CCN(c2cnc(C#N)c(-c3cnn(C)c3)n2)C[C@H]1C
Reply: > 100 µM

====

# SYSTEM_NAME: Macrophage-stimulating protein receptor (Homo sapiens)
# Sequence (Q04912 25-304 limits assumed): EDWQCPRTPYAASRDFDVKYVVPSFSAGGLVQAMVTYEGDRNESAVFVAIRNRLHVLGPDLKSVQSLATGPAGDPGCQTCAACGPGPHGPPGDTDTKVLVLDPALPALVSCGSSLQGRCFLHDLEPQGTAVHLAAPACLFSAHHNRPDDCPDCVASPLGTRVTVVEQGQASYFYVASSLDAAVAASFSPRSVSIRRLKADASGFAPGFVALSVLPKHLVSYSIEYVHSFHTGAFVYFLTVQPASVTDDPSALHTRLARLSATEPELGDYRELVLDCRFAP
# Sequence (Q04912 310-1400 limits assumed): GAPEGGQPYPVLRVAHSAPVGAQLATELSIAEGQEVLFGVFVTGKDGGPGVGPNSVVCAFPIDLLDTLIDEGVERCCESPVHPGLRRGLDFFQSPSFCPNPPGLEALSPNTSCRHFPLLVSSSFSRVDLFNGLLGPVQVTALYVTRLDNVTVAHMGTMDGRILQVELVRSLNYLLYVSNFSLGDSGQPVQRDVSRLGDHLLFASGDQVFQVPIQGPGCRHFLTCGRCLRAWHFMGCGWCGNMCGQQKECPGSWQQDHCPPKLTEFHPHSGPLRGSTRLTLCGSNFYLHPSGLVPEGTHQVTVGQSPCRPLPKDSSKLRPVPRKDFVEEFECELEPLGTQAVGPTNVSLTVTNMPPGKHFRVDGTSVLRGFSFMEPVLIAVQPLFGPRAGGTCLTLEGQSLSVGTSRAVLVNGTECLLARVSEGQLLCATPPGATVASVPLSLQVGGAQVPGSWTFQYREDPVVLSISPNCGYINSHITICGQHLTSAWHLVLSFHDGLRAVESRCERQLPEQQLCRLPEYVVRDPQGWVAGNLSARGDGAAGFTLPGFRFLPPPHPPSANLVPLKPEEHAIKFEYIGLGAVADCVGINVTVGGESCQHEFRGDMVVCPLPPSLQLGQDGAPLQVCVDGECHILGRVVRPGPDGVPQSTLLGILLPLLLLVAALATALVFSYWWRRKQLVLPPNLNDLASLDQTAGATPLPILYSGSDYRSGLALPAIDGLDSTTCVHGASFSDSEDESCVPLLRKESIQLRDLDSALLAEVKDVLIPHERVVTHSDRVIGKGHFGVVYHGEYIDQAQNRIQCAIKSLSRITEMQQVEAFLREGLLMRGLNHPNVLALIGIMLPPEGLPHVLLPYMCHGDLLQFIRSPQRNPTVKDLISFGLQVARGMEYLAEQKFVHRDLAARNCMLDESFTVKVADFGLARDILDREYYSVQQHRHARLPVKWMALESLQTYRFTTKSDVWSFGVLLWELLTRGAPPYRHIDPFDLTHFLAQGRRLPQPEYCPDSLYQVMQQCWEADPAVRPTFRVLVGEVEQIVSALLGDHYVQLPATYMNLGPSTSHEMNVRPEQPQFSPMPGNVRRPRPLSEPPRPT
# ASSAY_COMMENT: Inhibition of recombinant human GST-tagged RON catalytic domain (983 to 1400 residues) expressed in baculovirus expression system using tyrosine-6 peptide as substrate incubated for 60 mins in presence of ATP by Z'-LYTE assay
pIC50: −log10 of the molar value.
PROPERTY_LABEL: pIC50

Ask: Supply pIC50 value. Item: C[C@@H]1C[C@H]1C(=O)N1CCN(c2cnc(C#N)c(-c3cnn(C)c3)n2)C[C@H]1C
Reply: < 4.00

====

# SYSTEM_NAME: Ephrin type-B receptor 2 (Homo sapiens, UniProt P29323)
# ASSAY_COMMENT: Inhibition of recombinant human GST-tagged EPHB2 catalytic domain (616 to 884 residues) expressed in baculovirus expression system using tyrosine-2 peptide as substrate incubated for 60 mins in presence of ATP by Z'-LYTE assay
PROPERTY_LABEL: IC50

Ask: Supply IC50 value. Item: C[C@@H]1C[C@H]1C(=O)N1CCN(c2cnc(C#N)c(-c3cnn(C)c3)n2)C[C@H]1C
Reply: > 100 µM

====

# SYSTEM_NAME: Casein kinase I isoform gamma-2 (Homo sapiens, UniProt P78368)
# Sequence (P78368 whole entry, canonical isoform): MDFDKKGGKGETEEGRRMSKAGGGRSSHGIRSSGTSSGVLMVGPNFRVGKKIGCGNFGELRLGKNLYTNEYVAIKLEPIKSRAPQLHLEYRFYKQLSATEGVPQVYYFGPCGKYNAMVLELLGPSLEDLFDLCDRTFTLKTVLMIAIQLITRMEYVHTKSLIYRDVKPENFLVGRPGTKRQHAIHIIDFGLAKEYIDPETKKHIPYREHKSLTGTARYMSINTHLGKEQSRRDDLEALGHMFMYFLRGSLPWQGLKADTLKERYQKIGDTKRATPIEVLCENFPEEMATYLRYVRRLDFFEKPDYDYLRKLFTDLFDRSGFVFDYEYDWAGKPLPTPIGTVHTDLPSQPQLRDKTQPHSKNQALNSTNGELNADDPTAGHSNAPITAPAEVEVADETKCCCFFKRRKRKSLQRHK
# ASSAY_COMMENT: Inhibition of recombinant human full-length His-tagged CSNK1G2 expressed in baculovirus expression system using FRET-labeled Ser/Thr 05 peptide as substrate measured after 1 hr in presence of ATP by Z'-lyte assay
pIC50: −log10 of the molar value.
PROPERTY_LABEL: pIC50

Ask: Supply pIC50 value. Item: C[C@@H]1C[C@H]1C(=O)N1CCN(c2cnc(C#N)c(-c3cnn(C)c3)n2)C[C@H]1C
Reply: < 4.00

====

# SYSTEM_NAME: UniProtKB P54760
# Sequence (P54760 whole entry, the tested form may be a part): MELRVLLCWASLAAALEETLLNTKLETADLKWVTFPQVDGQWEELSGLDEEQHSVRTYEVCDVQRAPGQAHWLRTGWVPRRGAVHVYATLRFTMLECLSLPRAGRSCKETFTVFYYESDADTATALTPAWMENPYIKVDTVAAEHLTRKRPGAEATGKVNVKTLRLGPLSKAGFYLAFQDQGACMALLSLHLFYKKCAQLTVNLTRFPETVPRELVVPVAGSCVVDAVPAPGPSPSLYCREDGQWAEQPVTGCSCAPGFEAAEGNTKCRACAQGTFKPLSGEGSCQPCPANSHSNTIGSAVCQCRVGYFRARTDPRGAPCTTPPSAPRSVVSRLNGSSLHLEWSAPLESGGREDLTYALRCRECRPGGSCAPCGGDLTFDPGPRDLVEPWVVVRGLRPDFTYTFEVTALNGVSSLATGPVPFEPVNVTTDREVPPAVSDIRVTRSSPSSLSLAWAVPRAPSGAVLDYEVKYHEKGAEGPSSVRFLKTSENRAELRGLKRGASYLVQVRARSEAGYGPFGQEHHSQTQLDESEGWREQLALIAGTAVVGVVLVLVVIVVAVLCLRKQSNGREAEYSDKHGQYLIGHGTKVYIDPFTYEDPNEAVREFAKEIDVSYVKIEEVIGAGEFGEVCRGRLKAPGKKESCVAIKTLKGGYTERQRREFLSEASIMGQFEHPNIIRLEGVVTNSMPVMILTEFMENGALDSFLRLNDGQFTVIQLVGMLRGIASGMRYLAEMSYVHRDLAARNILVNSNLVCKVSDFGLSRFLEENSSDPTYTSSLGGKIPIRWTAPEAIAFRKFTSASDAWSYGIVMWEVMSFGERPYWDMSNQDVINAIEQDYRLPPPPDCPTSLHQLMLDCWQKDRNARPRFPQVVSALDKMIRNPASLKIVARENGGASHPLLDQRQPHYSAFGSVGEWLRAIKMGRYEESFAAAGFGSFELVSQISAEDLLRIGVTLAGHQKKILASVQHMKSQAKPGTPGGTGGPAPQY
# ASSAY_COMMENT: Inhibition of recombinant human His-tagged EPHB4 (561 to 987 residues) catalytic domain expressed in baculovirus expression system using tyrosine-01 peptide as substrate incubated for 60 mins in presence of ATP by Z'-LYTE assay
pIC50: −log10 of the molar value.
PROPERTY_LABEL: pIC50

Ask: Answer with pIC50 of C[C@@H]1C[C@H]1C(=O)N1CCN(c2cnc(C#N)c(-c3cnn(C)c3)n2)C[C@H]1C measured for UniProtKB P54760.
Reply: < 4.00

====

# SYSTEM_NAME: Serine/threonine-protein kinase TAO2 (Homo sapiens, UniProt Q9UL54)
# ASSAY_COMMENT: Inhibition of recombinant human GST-tagged TAO2 catalytic domain (1 to 314 residues) expressed in baculovirus expression system using serine/threonine-7 peptide as substrate incubated for 60 mins in presence of ATP by Z'-LYTE assay
PROPERTY_LABEL: IC50

Ask: Answer with IC50 of C[C@@H]1C[C@H]1C(=O)N1CCN(c2cnc(C#N)c(-c3cnn(C)c3)n2)C[C@H]1C measured for Serine/threonine-protein kinase TAO2 (Homo sapiens, UniProt Q9UL54).
Reply: > 100 µM
